Biological target: T1, mouse recombinant EphA2-Fc fusion protein (mouse, UniProt Q03145 26-535, limits assumed)
T1 construct: also called mouse EphA2; not shown: Fc part
T1 sequence (Q03145 26-535 limits assumed): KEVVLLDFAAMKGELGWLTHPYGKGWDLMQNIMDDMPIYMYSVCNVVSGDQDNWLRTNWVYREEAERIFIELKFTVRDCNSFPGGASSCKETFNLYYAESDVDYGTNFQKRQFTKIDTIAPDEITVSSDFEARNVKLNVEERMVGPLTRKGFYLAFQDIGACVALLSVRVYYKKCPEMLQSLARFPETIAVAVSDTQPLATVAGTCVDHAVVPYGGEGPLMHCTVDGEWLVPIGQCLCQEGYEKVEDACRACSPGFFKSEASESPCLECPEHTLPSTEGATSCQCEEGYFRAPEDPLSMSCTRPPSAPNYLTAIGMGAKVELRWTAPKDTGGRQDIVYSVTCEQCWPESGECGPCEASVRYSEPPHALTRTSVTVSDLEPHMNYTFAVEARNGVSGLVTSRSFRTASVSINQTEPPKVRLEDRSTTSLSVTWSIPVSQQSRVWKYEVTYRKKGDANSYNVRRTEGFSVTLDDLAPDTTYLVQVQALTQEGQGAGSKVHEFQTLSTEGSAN
Assay: flow cytometry of yeast-displayed scFv with mouse recombinant EphA2-Fc, curve fit of normalized MFI (apparent KD)
pKd: −log10 of the molar value.
The entries below are paired with their reported pKd.
Test Readout: pKd

{"columns": ["Binder", "Quantitative Readout"],
 "data": [
  ["RYRgerm_102919_14 scFv (scFv, also called RYRgerm_102019_14) scFv: EVQLVESGGGLVQPGGSLRLSCAASGFTSSSYSMNWVRQAPGKGLEWVSYISSSSSTIYYADSVKGRFTISRDNAKNSLYLQMNSLRAEDTAVYYCARYRLPNFWSGYPNYGMDVWGQGTTVTVSSGGGGSGGGGSGGGGSQSVLTQPPSVSGAPGQRVTISCTGSSSNIGAGYDVHWYQQLPGTAPKLLIYGNSNRPSGVPDRFSGSKSGTSASLAITGLQAEDEADYYCQSYDSSLSGHVVFGGGTKLTVL", 8.67],
  ["RYRgerm_102919_15 scFv (scFv) scFv: EVQLVESGGGLVQPGGSLRLSCAASGFTFSSYSMNWVRQAPGKGLEWVSYISSSSSTIYYADSVKGRFTISRDNAKNSLYLQMNSLRAEDTAVYYCARYRLPNFWSGYPNYGTDVWGQGTTVTVSSGGGGSGGGGSGGGGSQSVLTQPPSVSGAPGQRVTISCTGSSSNIGAGYDVHWYQQLPGTAPKLLIYGNSNRPSGVPDRFSGSKSGTSASLAITGLQAEDEADYYCQSYDSSLSGHVVFGGGTKLTVL", 8.70],
  ["RYRgerm_102919_33 scFv (scFv) scFv: EVQLVESGGGLVQPGGSLRLSCAASGFTFSSYSMNWVRQAPGKGLEWVSYISSSSSTIYYADSVKGRFTISRDNAKNSLYLQMNSLRAEDTAVYYCARYRFPDFWSGYPNYGMDVWGQGTTVTVSSGGGGSGGGGSGGGGSQSVLTQPPSVSGAPGQRVTISCTGSSSNIGAGYDVHWYQQLPGTAPKLLIYGNSNRPSGVPDRFSGSKSGTSASLAITGLQAEDEADYYCQSYDSSLSGHVVFGGGTKLTVL", 8.54]
]}
